- Tested on: HT-29
- assay.explanation: NCI tumour cell line growth inhibition, 48 h
The source made the active and inactive calls. No stated cut-off is given here; in the data, active = GI50 up to about 1.1 µM and inactive = higher.
Answer with one of the outcomes given here: active, inactive

Solved cases (6 shown):
CC(C)CC1NC(=O)C(C(C)C)NC(=O)CC(C)COC(=O)C(CC(C)C)N(C)C(=O)C(C(C)C)NC(=O)C(C(C)C)OC1=O (stereo not given)	inactive
CC1OC(OC2C(O[C@H]3CC[C@@]4(C)C(=CC[C@H]5[C@@H]6C[C@@H]7O[C@]8(CC[C@H](C)CN8)[C@@H](C)[C@@H]7[C@@]6(C)CC[C@@H]54)C3)OC(CO)C(O)C2OC2OC(CO)C(O)C(O)C2O)C(O)C(O)C1O (stereo not given in full)	inactive
OCC(O)C(O)c1nn(-c2ccccc2)c2nc3cc(Cl)c(Cl)cc3nc12 (stereo not given)	inactive
CN(C)C(=S)/N=c1\ss/c(=N\C(=S)N(C)C)n1-c1cccc(Cl)c1	inactive
CCCCCCNCCCNc1c2ccccc2nc2cccc([N+](=O)[O-])c12	active
COc1ccc(C2COc3cc(OC(C)=O)c(OC(C)=O)cc3C2)cc1 (stereo not given)	inactive

Input: Each compound tested received a call. Report the one for COc1ccc(C(O)c2cc(OC)c(OC)c(OC)c2)cc1 (stereo not given) .
Output: inactive

Input: For `Nc1ccc(/N=N/c2ccc(-c3ccc(/N=N/c4c(S(=O)(=O)O)cc5cc(S(=O)(=O)O)c(/N=N/c6ccc([N+](=O)[O-])cc6)c(N)c5c4O)cc3)cc2)c2cc(S(=O)(=O)O)ccc12` , what call appears in the results of this test?
Output: inactive

Input: Kindly provide the recorded test outcome for the following compound: CC1CCCC(C(O)CC2CC(=O)NC(=O)C2)C1O (stereo not given)
Output: inactive

Input: Which outcome was assigned to `COC(=O)C(CCC1(C)OCCO1)=[N+]=[N-]` in this test?
Output: inactive

Input: Could you check what this test reported for CC1OC(OC2C(OC(=O)[C@]34CCC(C)(C)C[C@H]3C3=CC[C@@H]5[C@@]6(C)CC[C@H](OC7OC(C(=O)O)C(O)C(O)C7O)C(C)(C)[C@@H]6CC[C@@]5(C)[C@]3(C)C[C@H]4O)OCC(O)C2O)C(O)C(O)C1OC1OCC(OC2OCC(O)C(O)C2O)C(O)C1O (stereo not given in full) ?
Output: inactive

Input: Please indicate how the test categorized COc1cccc2c1C(=O)c1c(O)c3c(c(O)c1C2=O)C[C@@](O)(C(=O)CN1CCOCC1)C[C@@H]3OC1CC(N)C(O)C(C)O1 (stereo not given in full) .
Output: active

Input: Recorded call for `O=C(Nc1ccc(Cl)cc1)C(=O)C1=C(O)c2ccccc2OC1` ?
Output: inactive

Input: Tell me the recorded outcome of this test for `Nc1c(Br)c(=O)[nH]c(=O)n1COCCO` .
Output: inactive

Input: Kindly provide the recorded test outcome for the following compound: `C[C@]12CC/C(=N\O)C=C1CC[C@@H]1[C@@H]2CC[C@]2(C)C(=N/O)/C(=C/c3ccncc3)C[C@@H]12`
Output: inactive

# credit: ChEMBL document CHEMBL1201862
